Please consider the recorded Ki for Mu-type opioid receptor (Cavia porcellus) in what follows.
Square brackets hold non-standard residues; d marks the D form. Peptide text beside a SMILES is read from it. 2Thi = N[C@@H](Cc1cccs1)C(=O)O
Test Readout: Ki

[[record]]
compound = "Cc1c(C)c(C)c(C[C@H](NC(=O)[C@H](C)NC(=O)[C@@H](N)Cc2ccc(O)cc2)C(=O)N[C@@H](CC(=O)O)C(=O)N[C@H](C(=O)N[C@H](C(=O)NCC(N)=O)C(C)C)C(C)C)c(C)c1C (stereo in doubt; 5b)"
test_readout = "Ki"
reported_value = "> 10 µM"

[[record]]
compound = "Cc1ccc(C[C@H](NC(=O)[C@H](C)NC(=O)[C@@H](N)Cc2ccc(O)cc2)C(=O)N[C@@H](CC(=O)O)C(=O)N[C@H](C(=O)N[C@H](C(=O)NCC(N)=O)C(C)C)C(C)C)cc1"
test_readout = "Ki"
reported_value = "> 10 µM"

[[record]]
compound = "CC(C)[C@H](NC(=O)[C@H](CC(=O)O)NC(=O)[C@H](Cc1cccs1)NC(=O)[C@H](C)NC(=O)[C@@H](N)Cc1ccc(O)cc1)C(=O)N[C@H](C(=O)NCC(N)=O)C(C)C (H-YA[2Thi]DVVG-NH2)"
test_readout = "Ki"
reported_value = "0.419 µM"


---

Biological target: Kappa-type opioid receptor (Cavia porcellus, UniProt P41144)
Sequence (P41144 whole entry): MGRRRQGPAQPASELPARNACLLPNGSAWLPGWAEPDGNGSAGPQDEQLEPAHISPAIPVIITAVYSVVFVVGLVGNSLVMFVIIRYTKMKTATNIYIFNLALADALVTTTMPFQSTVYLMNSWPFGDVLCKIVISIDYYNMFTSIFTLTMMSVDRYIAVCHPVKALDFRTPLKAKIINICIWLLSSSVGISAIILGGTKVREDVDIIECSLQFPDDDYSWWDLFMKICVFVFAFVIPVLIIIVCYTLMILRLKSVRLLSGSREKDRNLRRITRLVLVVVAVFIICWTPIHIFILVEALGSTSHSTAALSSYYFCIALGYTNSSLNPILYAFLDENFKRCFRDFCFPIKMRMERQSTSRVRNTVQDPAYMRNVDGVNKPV
Test: Inhibition of [3H]- U 69593 from Opioid receptor kappa 1 of guinea pig brain
Test Readout: Ki

[[record]]
substance = "H-YAHDVVG-NH2"
reported_value = "> 10 µM"


---

pKi values for the compounds below.
Molecular target: Mu-type opioid receptor (Cavia porcellus)
Assay: Inhibition of [3H]DAMGO binding to Opioid receptor mu 1 of guinea pig brain
pKi: −log10 of the molar value. Square brackets hold non-standard residues; d marks the D form. Peptide text beside a SMILES is read from it. Ala(4-thiazolyl) = N[C@@H](Cc1cscn1)C(=O)O; 2Pal = N[C@@H](Cc1ccccn1)C(=O)O; 3Pal = N[C@@H](Cc1cccnc1)C(=O)O
Test Readout: pKi

[[record]]
compound = "CC(NC(=O)[C@@H](N)Cc1ccc(O)cc1)C(=O)N[C@@H](Cc1ccccc1)C(=O)N[C@@H](CC(=O)O)C(=O)N[C@H](C(=O)N[C@H](C(=O)NCC(N)=O)C(C)C)C(C)C (single isomer, unassigned) [DELTORPHIN C]"
system_tested = "Mu-type opioid receptor (Cavia porcellus)"
test_readout = "pKi"
comparison_operator = "="
reported_value = 6.17

[[record]]
compound = "CC(C)[C@H](NC(=O)[C@H](CC(=O)O)NC(=O)[C@H](Cc1cccc(F)c1)NC(=O)[C@H](C)NC(=O)[C@@H](N)Cc1ccc(O)cc1)C(=O)N[C@H](C(=O)NCC(N)=O)C(C)C (stereo in doubt; 2a)"
system_tested = "Mu-type opioid receptor (Cavia porcellus)"
test_readout = "pKi"
comparison_operator = "="
reported_value = 6.39

[[record]]
compound = "CC(C)[C@H](NC(=O)[C@H](CC(=O)O)NC(=O)[C@H](Cc1ccc(F)cc1)NC(=O)[C@H](C)NC(=O)[C@@H](N)Cc1ccc(O)cc1)C(=O)N[C@H](C(=O)NCC(N)=O)C(C)C"
system_tested = "Mu-type opioid receptor (Cavia porcellus)"
test_readout = "pKi"
comparison_operator = "="
reported_value = 5.00

[[record]]
compound = "CC(C)[C@H](NC(=O)[C@H](CC(=O)O)NC(=O)[C@H](Cc1ccccn1)NC(=O)[C@H](C)NC(=O)[C@@H](N)Cc1ccc(O)cc1)C(=O)N[C@H](C(=O)NCC(N)=O)C(C)C (H-YA[2Pal]DVVG-NH2)"
system_tested = "Mu-type opioid receptor (Cavia porcellus)"
test_readout = "pKi"
comparison_operator = "="
reported_value = 5.53

[[record]]
compound = "CC(C)[C@H](NC(=O)[C@H](CC(=O)O)NC(=O)[C@H](Cc1cscn1)NC(=O)[C@H](C)NC(=O)[C@@H](N)Cc1ccc(O)cc1)C(=O)N[C@H](C(=O)NCC(N)=O)C(C)C (H-YA[Ala(4-thiazolyl)]DVVG-NH2)"
system_tested = "Mu-type opioid receptor (Cavia porcellus)"
test_readout = "pKi"
comparison_operator = "="
reported_value = 5.55

[[record]]
compound = "CC(C)[C@H](NC(=O)[C@H](CC(=O)O)NC(=O)[C@H](Cc1c(F)c(F)c(F)c(F)c1F)NC(=O)[C@H](C)NC(=O)[C@@H](N)Cc1ccc(O)cc1)C(=O)N[C@H](C(=O)NCC(N)=O)C(C)C"
system_tested = "Mu-type opioid receptor (Cavia porcellus)"
test_readout = "pKi"
comparison_operator = "<"
reported_value = 5.00

[[record]]
compound = "CC(C)[C@H](NC(=O)[C@H](CC(=O)O)NC(=O)[C@H](Cc1cccnc1)NC(=O)[C@H](C)NC(=O)[C@@H](N)Cc1ccc(O)cc1)C(=O)N[C@H](C(=O)NCC(N)=O)C(C)C (H-YA[3Pal]DVVG-NH2)"
system_tested = "Mu-type opioid receptor (Cavia porcellus)"
test_readout = "pKi"
comparison_operator = "="
reported_value = 5.00

[[record]]
compound = "CC(C)[C@H](NC(=O)[C@H](CC(=O)O)NC(=O)[C@H](Cc1cccc(F)c1)NC(=O)[C@H](C)NC(=O)[C@@H](N)Cc1ccc(O)cc1)C(=O)N[C@H](C(=O)NCC(N)=O)C(C)C (stereo in doubt; 2b)"
system_tested = "Mu-type opioid receptor (Cavia porcellus)"
test_readout = "pKi"
comparison_operator = "="
reported_value = 5.46

[[record]]
compound = "Cc1c(C)c(C)c(C[C@H](NC(=O)[C@H](C)NC(=O)[C@@H](N)Cc2ccc(O)cc2)C(=O)N[C@@H](CC(=O)O)C(=O)N[C@H](C(=O)N[C@H](C(=O)NCC(N)=O)C(C)C)C(C)C)c(C)c1C (stereo in doubt; 5a)"
system_tested = "Mu-type opioid receptor (Cavia porcellus)"
test_readout = "pKi"
comparison_operator = "<"
reported_value = 5.00


---

Target: Mu-type opioid receptor (Cavia porcellus, UniProt P97266)
Sequence (P97266 whole entry): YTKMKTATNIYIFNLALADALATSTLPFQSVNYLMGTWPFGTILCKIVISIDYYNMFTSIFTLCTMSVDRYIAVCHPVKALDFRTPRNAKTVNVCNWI
Test: Inhibition of [3H]DAMGO binding to Opioid receptor mu 1 of guinea pig brain
pKi: −log10 of the molar value.
Test Readout: pKi

[[record]]
substance = "H-YAHDVVG-NH2"
reported_value = "< 5.00"

